Tgt: T1, 4H3277-bA
T1 chain: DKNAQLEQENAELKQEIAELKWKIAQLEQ
Assay Summary: two-hybrid library CCNG1;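 also: natural log of median RNA to DNA barcode read ratio; higher means stronger binding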

[
  {
    "Binder": "DEIAQLEQEIAELKQKNAELKWEIAQLEQ [4H121-bA]",
    "interaction score": -1.51
  },
  {
    "Binder": "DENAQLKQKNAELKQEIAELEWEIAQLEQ [4H1985-bA]",
    "interaction score": -0.983
  },
  {
    "Binder": "DKIAQLEQENAELEQKIAELKWKNAQLEQ [4H2223-bA]",
    "interaction score": -0.571
  },
  {
    "Binder": "DKNAQLEQEIAELKQKIAELEWKNAQLEQ [4H3175-bA]",
    "interaction score": -0.717
  },
  {
    "Binder": "DKNAQLEQENAELKQEIAELKWKIAQLEQ [4H3277-bA]",
    "interaction score": 1.38
  },
  {
    "Binder": "DKIAQLKQKIAELKQKIAELEWENAQLEQ [4H2915-bA]",
    "interaction score": -1.17
  },
  {
    "Binder": "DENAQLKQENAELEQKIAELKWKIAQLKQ [4H1710-bA]",
    "interaction score": -0.282
  }
]

The reported numbers originate from paper PMC10397247.
